Values were extracted from ChEMBL document CHEMBL3763099.

- System: LNCaP
- experimental protocol: Cytotoxicity against human LNCAP cells assessed as inhibition of cell viability at 1 uM after 3 days by trypan blue dye exclusion assay
- Type: functional
- assay setup: 72 h
Label true for high-side inhibition at 1 µM (at or above 40%) and false for low-side inhibition at 1 µM (below it).

Look over these answered cases.
given smiles: Cc1cccc(/C=C/C=C/C(=O)/C=C/c2cccc(C)n2)n1
assay target: LNCaP
assigned category: true
--
given smiles: CC(C)CCn1ccnc1/C=C/C=C/C(=O)/C=C/c1nccn1CCC(C)C
assay target: LNCaP
assigned category: false
--
given smiles: CCCCCn1ccnc1/C=C/C=C/C(=O)/C=C/c1nccn1CCCCC
assay target: LNCaP
assigned category: true

Check if inhibition at 1 µM >= 40% (inclusive). Item: `CC(C)=CCn1ccnc1/C=C/C=C/C(=O)/C=C/c1nccn1CC=C(C)C` false

Check if inhibition at 1 µM >= 40% (inclusive). Item: `CCCn1ccnc1/C=C/C=C/C(=O)/C=C/c1nccn1CCC` false

Check if inhibition at 1 µM >= 40% (inclusive). Item: `O=C(/C=C/C=C/c1ccccn1)/C=C/c1ccccn1` false

Check if inhibition at 1 µM >= 40% (inclusive). Item: `Cc1cc(/C=C/C=C/C(=O)/C=C/c2cc(C)on2)no1` false

Check if inhibition at 1 µM >= 40% (inclusive). Item: `CCCCn1ccnc1/C=C/C=C/C(=O)/C=C/c1nccn1CCCC` true

Check if inhibition at 1 µM >= 40% (inclusive). Item: `Cc1csc(/C=C/C=C/C(=O)/C=C/c2nc(C)cs2)n1` false

Check if inhibition at 1 µM >= 40% (inclusive). Item: `CCCCCCn1ccnc1/C=C/C=C/C(=O)/C=C/c1nccn1CCCCCC` false

---

- Test system: HeLa
- experimental protocol: Cytotoxicity against human HeLa cells assessed as inhibition of cell viability at 10 uM after 3 days by trypan blue dye exclusion assay
- Type: functional
- assay setup: 72 h
reported property: inhibition at 10 µM (%)
Respond with the bare value in %.

Consider the reported inhibition at 10 µM for these compounds:
given smiles: O=C(/C=C/C=C/c1ccncc1F)/C=C/c1ccncc1F
inhibition at 10 µM [%]: 94
--
given smiles: O=C(/C=C/C=C/c1ccccn1)/C=C/c1ccccn1
inhibition at 10 µM [%]: 24
--
given smiles: CCCCCCCn1ccnc1/C=C/C=C/C(=O)/C=C/c1nccn1CCCCCCC
inhibition at 10 µM [%]: 99
--
given smiles: O=C(/C=C/C=C/c1cccnc1)/C=C/c1cccnc1
inhibition at 10 µM [%]: 97
--
given smiles: COc1cc(/C=C/C(=O)CC(=O)/C=C/c2ccc(O)c(OC)c2)ccc1O
inhibition at 10 µM [%]: 50
--
given smiles: CCCn1ccnc1/C=C/C=C/C(=O)/C=C/c1nccn1CCC
inhibition at 10 µM [%]: 98
--
given smiles: CC(C)CCn1c(/C=C/C=C/C(=O)/C=C/c2nc3ccccc3n2CCC(C)C)nc2ccccc21
inhibition at 10 µM [%]: 97
--
given smiles: CCCCCn1ccnc1/C=C/C=C/C(=O)/C=C/c1nccn1CCCCC
inhibition at 10 µM [%]: 95
--
given smiles: CCn1ccnc1/C=C/C=C/C(=O)/C=C/c1nccn1CC
inhibition at 10 µM [%]: 98
--
given smiles: Cn1cc(Br)c(/C=C/C=C/C(=O)/C=C/c2nn(C)cc2Br)n1
inhibition at 10 µM [%]: 95

Turning now to a further compound:
# query: inhibition at 10 µM of entry `CCCCCCn1ccnc1/C=C/C=C/C(=O)/C=C/c1nccn1CCCCCC` 98
